Collected EC50 values appear next to each entry.
experimental.system: HLA-A2/HPV16E7:11-19 on peptide-pulsed T2 cells (human; human papillomavirus type 16)
assay.remarks: MSD cell binding, T2
observable: EC50 (nM)

H4sH17363N (antibody, V domains shown) VH: EVQLLESGGGLVQPGGSLRLSCAASGFTFSSYAMTWVRQAPGMGLEWVSVISGSGSETYYADSVKGRFTISRDNSKNTLYLQMNSLRAEDTAVYYCVKDSSYRSSSRAYYYYGMDVWGLGTTVTVSS VL: DIQMTQSPSSLSASVGDRVTITCRASQSISSYLNWYQQKPGKAPKLLIYAVSILQSGVPSRFSGSGSGTDFTLTINSLQPEDFATYSCQQTYSTPPITFGQGTRLEIKR    2.1
H4sH17675P (antibody, V domains shown) VH: EVQLVESGGGLVQPGASLRLSCEASGFTLSFYAMHWVRQAPGKELEYVSGISGNGNSIYYRDSVKGRFTISRDNSKNTLYLQMGSVGAEDMAVYYCARSYSSGNSYYYYYGMDVWGQGTTVTVSS VL: DIQMTQSPSSLSASVGDRITITCRASQSISSYLNWYQQKPGKAPNLLIYAASNLQSGVPSRFSGSGSGTDFTLTISSLQPEDFATYYCQQSYSTPPITFGQGTRLEIKR    1.1
